STUDY_TARGET: full-length human PLD2 (Homo sapiens (Human))
Sequence (O14939 whole entry): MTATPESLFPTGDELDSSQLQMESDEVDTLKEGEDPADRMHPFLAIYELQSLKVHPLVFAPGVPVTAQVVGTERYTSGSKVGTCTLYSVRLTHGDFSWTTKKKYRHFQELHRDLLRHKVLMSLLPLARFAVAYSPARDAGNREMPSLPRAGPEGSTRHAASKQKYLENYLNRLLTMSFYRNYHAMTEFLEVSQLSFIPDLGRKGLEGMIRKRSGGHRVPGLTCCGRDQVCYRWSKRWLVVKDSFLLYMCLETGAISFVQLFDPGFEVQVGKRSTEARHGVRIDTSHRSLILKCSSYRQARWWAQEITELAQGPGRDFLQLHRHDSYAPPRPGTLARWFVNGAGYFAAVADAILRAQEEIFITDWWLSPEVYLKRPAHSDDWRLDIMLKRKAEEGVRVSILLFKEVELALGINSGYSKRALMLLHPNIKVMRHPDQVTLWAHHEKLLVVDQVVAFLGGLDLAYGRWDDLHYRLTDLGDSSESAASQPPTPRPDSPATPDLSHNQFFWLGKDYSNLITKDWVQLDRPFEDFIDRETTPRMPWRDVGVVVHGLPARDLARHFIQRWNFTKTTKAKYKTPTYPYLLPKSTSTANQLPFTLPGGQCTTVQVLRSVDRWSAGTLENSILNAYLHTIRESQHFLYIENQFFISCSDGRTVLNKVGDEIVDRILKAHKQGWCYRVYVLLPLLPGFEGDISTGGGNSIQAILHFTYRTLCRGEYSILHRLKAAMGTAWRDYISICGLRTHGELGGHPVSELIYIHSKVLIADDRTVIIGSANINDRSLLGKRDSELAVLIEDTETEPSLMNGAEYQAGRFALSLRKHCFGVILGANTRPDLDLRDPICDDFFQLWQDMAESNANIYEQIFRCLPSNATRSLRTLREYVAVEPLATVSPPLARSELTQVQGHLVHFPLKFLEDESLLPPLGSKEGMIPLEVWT
PROCEDURE_TEXT: Evaluation of human PLD2 enzyme inhibitory activity (Amplex Red / choline oxidase fluorescence)
Type: biochemical
CONDITION: full-length human PLD2 enzyme; read-out: PLD2 IC50
OBSERVED_PROPERTY: IC50

> print(dat)
                              sample.smiles  observed.property  value.reported
1  Cc1cc(C(=O)N[C@@H](C)C[C@H]2CC[C@]3(CC2)OC(=O)NN=C3c2ccc(Br)cc2)[nH]n1               IC50           49 nM
2  Cc1cc(C(=O)N[C@@H](C)C[C@]2(O)CC[C@@]3(CC2)OC(=O)NN=C3c2ccc(F)cc2Br)[nH]n1               IC50         < 10 nM
3  CNC(=O)N[C@@H](C)C[C@H]1CC[C@]2(CC1)OC(=O)NN=C2c1ccc(F)cc1I               IC50          107 nM
4  C[C@@H](CN1CCC2(CC1)OC(=O)NN=C2c1cc(C#N)ccc1Br)NC(=O)c1cc(F)c[nH]1               IC50         < 10 nM
